# Tested target: TF-VIIa (Homo sapiens, UniProt P08709)
# Construct: 2nM recombinant human factor VIIa; purchased American Diagnostica, Greenwich CT; host or cells: soluble TF made in house in E. coli
# Sequence (P08709 213-466 limits assumed): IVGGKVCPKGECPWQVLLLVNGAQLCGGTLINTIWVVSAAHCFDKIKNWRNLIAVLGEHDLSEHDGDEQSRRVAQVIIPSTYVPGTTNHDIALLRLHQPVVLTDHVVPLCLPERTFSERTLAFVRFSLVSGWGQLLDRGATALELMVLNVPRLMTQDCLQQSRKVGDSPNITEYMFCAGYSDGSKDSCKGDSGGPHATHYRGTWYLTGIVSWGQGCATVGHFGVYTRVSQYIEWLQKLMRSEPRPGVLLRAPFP
# Sequence (P08709 61-212 limits assumed): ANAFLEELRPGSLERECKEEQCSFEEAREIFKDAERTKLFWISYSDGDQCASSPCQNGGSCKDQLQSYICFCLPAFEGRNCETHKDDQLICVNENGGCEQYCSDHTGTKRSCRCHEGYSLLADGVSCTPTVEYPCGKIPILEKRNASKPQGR
# Sequence (P13726 33-251 partner limits assumed): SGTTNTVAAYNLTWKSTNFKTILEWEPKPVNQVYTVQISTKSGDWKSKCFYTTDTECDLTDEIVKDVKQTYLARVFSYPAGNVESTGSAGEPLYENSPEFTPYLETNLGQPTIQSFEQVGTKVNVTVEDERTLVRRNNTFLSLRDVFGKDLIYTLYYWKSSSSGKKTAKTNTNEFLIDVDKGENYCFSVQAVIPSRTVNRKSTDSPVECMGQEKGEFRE
# Experiment notes: TF-VIIa Assay
# Assay type: biochemical
# Condition summary: read-out: IC50 or % Inhibition TF-VIIa (30 µM); cells given as a plain number (IC50)
pIC50: −log10 of the molar value.
Measurement type: pIC50

N=C(N)c1ccc(CNC(=O)Cn2c(-c3cccc(N)c3)c(Cl)nc(NC3CCC3)c2=O)cc1 :: 7.52

[a] N=C(N)c1ccc(CNC(=O)Cn2c(-c3ccc(F)cc3)c(Cl)nc(NCc3ccccc3)c2=O)cc1
[b] N=C(N)c1ccc(CNC(=O)Cn2c(-c3ccccc3)c(Cl)nc(NCCN3CCCC3)c2=O)cc1
[c] C[C@H](Nc1nc(Cl)c(-c2ccccc2)n(CC(=O)NCc2ccc(C(=N)N)cc2)c1=O)C1CCCCC1
Inquiry: In this exercise, place the 3 molecules in ascending sequence of their recorded pIC50. Please reply with the labels ordered as requested. Many thanks.
Reply text: a, c, b
(a: 4.85, c: 6.10, b: 6.57)

====

# Tested target: Human factor Xa (Homo sapiens)
# Experiment notes: Xa Assay
# Condition summary: read-out: IC50 or % Inhibition Factor Xa (30 µM); cells given as a plain number (IC50)
pIC50: −log10 of the molar value.
Measurement type: pIC50

Cc1c(N)cccc1-c1c(Cl)nc(NC(C)C)c(=O)n1CC(=O)NCc1ccc(C(=N)N)cc1 :: < 4.52
CNc1cccc(-c2c(Cl)nc(NC(C)C)c(=O)n2CC(=O)NCc2ccc(C(=N)N)cc2)c1 :: < 4.52
N=C(N)c1ccc(CNC(=O)Cn2c(-c3ccccc3)c(Cl)nc(N3CCC3)c2=O)cc1 :: < 4.52
N=C(N)c1ccc(CNC(=O)Cn2c(-c3sccc3Br)c(Cl)nc(NCCc3ccccc3)c2=O)cc1 :: < 4.52
N=C(N)c1ccc(CNC(=O)Cn2c(-c3cccc(F)c3)c(Cl)nc(NCc3ccccc3)c2=O)cc1 :: < 4.52
COc1ccccc1-c1c(Cl)nc(NCc2ccccc2)c(=O)n1CC(=O)NCc1ccc(C(=N)N)cc1 :: < 4.52
N=C(N)c1ccc(CNC(=O)Cn2c(-c3ccccc3)c(Cl)nc(NCCc3ccc(Br)cc3)c2=O)cc1 :: < 4.52
N=C(N)c1ccc(CNC(=O)Cn2c(-c3cccc(C(F)(F)F)c3)c(Cl)nc(NCc3ccccc3)c2=O)cc1 :: < 4.52
C=CCNc1nc(Cl)c(-c2cccc(N)c2)n(CC(=O)NCc2ccc(C(=N)N)cc2)c1=O :: < 4.52
C#CCNc1nc(Cl)c(-c2cccc(N)c2)n(CC(=O)NCc2ccc(C(=N)N)cc2)c1=O :: < 4.52

Inquiry: Form field: reported pIC50 of CC(C)(C)CCNc1nc(Cl)c(-c2ccccc2)n(CC(=O)NCc2ccc(C(=N)N)cc2)c1=O
Reply text: < 4.52

Inquiry: Form field: reported pIC50 of COCCNc1nc(Cl)c(-c2cccc(N)c2)n(CC(=O)NCc2ccc(C(=N)N)cc2)c1=O
Reply text: < 4.52

Inquiry: Form field: reported pIC50 of N=C(N)c1ccc(CNC(=O)Cn2c(-c3cccc(Br)c3)c(Cl)nc(NCCc3ccccc3)c2=O)cc1
Reply text: < 4.52

Inquiry: Form field: reported pIC50 of N=C(N)c1ccc(CNC(=O)Cn2c(-c3ccccc3)c(Cl)nc(NCc3cccc4ccccc34)c2=O)cc1
Reply text: < 4.52

Inquiry: Form field: reported pIC50 of N=C(N)c1ccc(CNC(=O)Cn2c(-c3ccccc3Cl)c(Cl)nc(NCc3ccccc3)c2=O)cc1
Reply text: < 4.52

Inquiry: Form field: reported pIC50 of N=C(N)c1ccc(CNC(=O)Cn2c(-c3ccccc3)c(Cl)nc(NCc3cccc(Cl)c3)c2=O)cc1
Reply text: < 4.52

====

# Tested target: Human factor Xa (Homo sapiens, UniProt P00742)
# Sequence (P00742 235-488 limits assumed): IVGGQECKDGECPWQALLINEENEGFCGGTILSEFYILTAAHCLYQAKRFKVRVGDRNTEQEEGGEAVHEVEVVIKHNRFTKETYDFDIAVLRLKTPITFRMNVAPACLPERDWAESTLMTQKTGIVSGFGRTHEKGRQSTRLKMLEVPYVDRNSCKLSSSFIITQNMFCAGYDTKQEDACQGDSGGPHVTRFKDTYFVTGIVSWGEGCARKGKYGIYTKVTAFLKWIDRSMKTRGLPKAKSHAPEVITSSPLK
# Sequence (P00742 41-179 limits assumed): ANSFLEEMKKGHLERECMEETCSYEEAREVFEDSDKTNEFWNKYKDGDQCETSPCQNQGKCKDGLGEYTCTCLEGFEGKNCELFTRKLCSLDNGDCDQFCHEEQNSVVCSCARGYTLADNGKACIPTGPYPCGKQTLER
Measurement type: IC50 or % Inhibition Factor Xa (30 µM) (%)

Worked cases, IC50 or % Inhibition Factor Xa (30 µM) given:
N=C(N)c1ccc(CNC(=O)Cn2c(-c3ccccc3)c(Cl)nc(NCc3ccc(C(F)(F)F)cc3F)c2=O)cc1 [1512-26] :: 5
N=C(N)c1ccc(CNC(=O)Cn2c(-c3ccccc3)c(Cl)nc(NCc3cc(F)ccc3F)c2=O)cc1 [1512-36] :: 9

[1] N=C(N)c1ccc(CNC(=O)Cn2c(-c3ccc(Cl)cc3)c(Cl)nc(NCCc3ccc(Cl)cc3)c2=O)cc1 [1471-18]
[2] CCc1c(Cl)nc(NCCc2ccc(Cl)cc2)c(=O)n1CC(=O)NCc1ccc(C(=N)N)cc1 [1471-58]
Inquiry: Hi, I'm comparing two records. Which one has the lower IC50 or % Inhibition Factor Xa (30 µM), 1 or 2 ? // respond with label for picked entry
Reply text: 2
(2: 0%, 1: 26%)

====

# Tested target: Human factor Xa (Homo sapiens, UniProt P00742)
# Experiment notes: Xa Assay
# Condition summary: % inhibition at 30 µM
Measurement type: IC50 or % Inhibition Factor Xa (30 µM) (%)

Worked cases, IC50 or % Inhibition Factor Xa (30 µM) given:
N=C(N)c1ccc(CNC(=O)Cn2c(-c3ccccc3)cnc(NS(=O)(=O)c3ccccc3)c2=O)cc1 :: 5
N=C(N)c1ccc(CNC(=O)Cn2c(-c3ccccc3)c(Cl)nc(NCCc3ccncc3)c2=O)cc1 [1471-13] :: 0
N=C(N)c1ccc(CNC(=O)Cn2c(-c3ccccc3)c(Cl)nc(CN)c2=O)cc1 :: 0
CC(C)(C)CCNc1nc(Cl)c(-c2ccccc2)n(CC(=O)NCc2ccc(C(=N)N)cc2)c1=O :: 0
CC(C)Nc1nc(Cl)c(-c2cc(N)ccc2F)n(CC(=O)NCc2ccc(C(=N)N)cc2F)c1=O :: 0
CC(C)NC(=O)Nc1ncc(-c2ccccc2)n(CC(=O)NCc2ccc(C(=N)N)cc2)c1=O :: 10

[A] N=C(N)c1ccc(CNC(=O)Cn2c(-c3ccccc3)c(Cl)nc(NCCN)c2=O)cc1
[B] N=C(N)c1ccc(CNC(=O)Cn2c(-c3ccccc3)c(Cl)nc(NC3CCCCCC3)c2=O)cc1 [1512-16]
Inquiry: Hi, I'm comparing two records. Which one has the lower IC50 or % Inhibition Factor Xa (30 µM), A or B ? // respond with label for picked entry
Reply text: A

====

Entries with their measured IC50 or % Inhibition Factor Xa (30 µM), system Human factor Xa (Homo sapiens):
Measurement type: IC50 or % Inhibition Factor Xa (30 µM) (%)

N=C(N)c1ccc(CNC(=O)Cn2c(-c3ccccc3)c(Cl)nc(NCc3ccccc3)c2=O)cc1 [1471-9] :: 29

[A] N=C(N)c1ccc(CNC(=O)Cn2c(-c3ccccc3)c(Cl)nc(NCCCCc3ccccc3)c2=O)cc1 [1507-43]
[B] N=C(N)c1ccc(CNC(=O)Cn2c(-c3ccccc3)c(Cl)nc(NCC3CC3)c2=O)cc1 [1517-43]
Inquiry: Higher IC50 or % Inhibition Factor Xa (30 µM): A or B ? // respond with label for picked entry
Reply text: A

====

# Tested target: TF-VIIa (Homo sapiens)
# Construct: 2nM recombinant human factor VIIa; purchased American Diagnostica, Greenwich CT; host or cells: soluble TF made in house in E. coli
# Experiment notes: TF-VIIa Assay
# Type: biochemical
# Condition summary: read-out: IC50 or % Inhibition TF-VIIa (30 µM); cells given as a plain number (IC50)
pIC50: −log10 of the molar value.
Measurement type: pIC50

[1] N=C(N)c1ccc(CNC(=O)Cn2c(-c3ccsc3)c(Cl)nc(NCCc3ccccc3)c2=O)cc1 [1517-13]
[2] CCOc1ccccc1CNc1nc(Cl)c(-c2ccccc2)n(CC(=O)NCc2ccc(C(=N)N)cc2)c1=O [1512-11]
[3] CC(C)C(C)Nc1nc(Cl)c(-c2cccc(N)c2)n(CC(=O)NCc2ccc(C(=N)N)cc2)c1=O (centres unmarked) [1526-15]
[4] N=C(N)c1ccc(CNC(=O)Cn2c(-c3ccccc3)c(Cl)nc(NCCNc3ncc(C(F)(F)F)cc3Cl)c2=O)cc1 [1522-37]
Inquiry: Sort ascending by pIC50: all records listed above. Please reply with the labels ordered as requested. Many thanks.
Reply text: 2, 4, 1, 3
(2: 4.52, 4: 5.70, 1: 6.22, 3: 7.22)

[P] Cc1c(Cl)nc(NCCN2CCOCC2)c(=O)n1CC(=O)NCc1ccc(C(=N)N)cc1 [1471-4]
[Q] CCCCCNc1nc(Cl)c(-c2ccccc2)n(CC(=O)NCc2ccc(C(=N)N)cc2)c1=O [1517-48]
[R] N=C(N)c1ccc(CNC(=O)Cn2c(-c3ccccc3)c(Cl)nc(NCc3ccccc3Cl)c2=O)cc1 [1507-03]
Inquiry: In this exercise, place the 3 molecules in ascending sequence of their recorded pIC50. Please reply with the labels ordered as requested. Many thanks.
Reply text: P, R, Q
